// provenance: the supplement of paper PMC10126150

Exercise: state measured switch fluorescence ratio for each of the sequences provided.
# Test system: ATP;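 further: ATP exposure 15 min at 22 °C before imaging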
# assay info: switch fluorescence ratio, 500 uM ATP over buffer (Cy3 cluster intensity, sum of 5 cycles each) (fold (ratio)); higher = stronger signal-on switching upon ATP binding; sequences stand for … in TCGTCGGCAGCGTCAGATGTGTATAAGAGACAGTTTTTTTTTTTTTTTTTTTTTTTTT…TC
# stated conditions: aptamer strand: ATP DNA aptamer (quencher-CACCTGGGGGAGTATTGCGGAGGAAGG + anchor), 100 nM annealed; ATP concentration: 500 uM

Reported switch fluorescence ratio, sequence ATAGGCGGTT : ____
1.02

Field request: switch fluorescence ratio | item: TTGAGGAAGT
1.06

Form field: reported switch fluorescence ratio of AAGGGGTTAT
1.02

Kindly give each listed record's switch fluorescence ratio.
1. GCTACACGAA
2. TTTTGCGAAA
3. AGAGGGAATG

[1.04, 1.55, 0.975]

----------
# Tested on: ATP;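 further: ATP exposure 15 min at 22 °C before imaging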
# assay info: switch fluorescence ratio, 500 uM ATP over buffer (Cy3 cluster intensity, sum of 5 cycles each) (fold (ratio)); higher = stronger signal-on switching upon ATP binding; sequences stand for … in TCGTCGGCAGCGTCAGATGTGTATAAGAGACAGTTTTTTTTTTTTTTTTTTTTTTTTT…TC
# stated conditions: aptamer strand: ATP DNA aptamer (quencher-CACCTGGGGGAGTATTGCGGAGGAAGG + anchor), 100 nM annealed; ATP concentration: 500 uM
measured parameter: switch fluorescence ratio
Numbers only.

Worked cases, switch fluorescence ratio given:
Would you kindly share the measured switch fluorescence ratio for AGTTCTAGGG ?
0.971

Find the recorded switch fluorescence ratio belonging to GAGGAAAGCA and report it.
0.982

I am curious: what switch fluorescence ratio value has been reported for AAAAATGGGA ?
0.962

Record request: switch fluorescence ratio value, item GTGTAAAGAC
1.03

May I ask what switch fluorescence ratio has been recorded for CGGGATCCAG ?
1.01

Batch request: switch fluorescence ratio for each of the following sequences.
1. ACATACCGTG
2. CGGGGGGCCA
3. TAAAATGTTT
4. GGGAGAATTT
5. CATGTTGGGT

1. 1.21
2. 1.02
3. 0.998
4. 1.29
5. 1.01

For every record below, what is its switch fluorescence ratio?
1. AAGTGTCCCG
2. GATCGGTAAA
3. GTGTTAAAGG

[0.994, 0.999, 0.992]

Dear colleague, could you please provide switch fluorescence ratio for the sequences listed below?
1. TATCATAGCG
2. GTGTGGTGTT
3. CCACCATTTT

1: 1.01; 2: 0.986; 3: 1.13

# per-item lookup of switch fluorescence ratio; items listed below
1. AGTTGGGGAC
2. CGTTTTTGGC

1: 1.01; 2: 0.992

Working through the 8 sequences below one at a time, give switch fluorescence ratio for each.
1. TTTTTGAGAA
2. AAGGGGGTGG
3. AGTTTTGAG
4. TTGTTGCCTG
5. TGGAACGGTT
6. AGGGTCGGAA
7. GGGTTTGGCG
8. GGGTTAGTTG

1. 0.983
2. 1.02
3. 0.993
4. 0.991
5. 1.04
6. 1.02
7. 0.999
8. 0.995

Please state, for each entry, its recorded switch fluorescence ratio.
1. AGGAAAAAGT
2. AGAGCCGGGA
3. AGCTTTAGAC

[1.02, 0.988, 1.09]
